Data origin: ChEMBL document CHEMBL1142967

Protocol notes: Cytotoxicity against CEM/0 cells
Assay type: cell-based, CCRF-CEM
Assay setup: human, ccrf-cem
# label = TRUE if CC50 < 60 µM else FALSE

For orientation, consider the following solved cases.
[
  {
    "Compound": "Cc1cn([C@H]2C=C[C@@H](COP3(=O)OCc4cccc(-c5cccc6c5OC(C)(C)OC6)c4O3)O2)c(=O)[nH]c1=O (stereo in doubt; 33)",
    "Cat": "FALSE"
  },
  {
    "Compound": "Cc1cn([C@H]2C=C[C@@H](COP3(=O)OCc4cccc(-c5cccc6c5OP(=O)(OC[C@@H]5C=C[C@H](n7cc(C)c(=O)[nH]c7=O)O5)OC6)c4O3)O2)c(=O)[nH]c1=O (single isomer, unassigned; diastereomer 1)",
    "Cat": "FALSE"
  },
  {
    "Compound": "Cc1cn([C@H]2C=C[C@@H](COP3(=O)OCc4cccc(-c5cccc6c5OP(=O)(OC[C@@H]5C=C[C@H](n7cc(C)c(=O)[nH]c7=O)O5)OC6)c4O3)O2)c(=O)[nH]c1=O (stereo in doubt; 6)",
    "Cat": "TRUE"
  },
  {
    "Compound": "Cc1cn([C@H]2C=C[C@@H](COP3(=O)OCc4cccc(-c5cccc6c5OP(=O)(OC[C@@H]5C=C[C@H](n7cc(C)c(=O)[nH]c7=O)O5)OC6)c4O3)O2)c(=O)[nH]c1=O (single isomer, unassigned; diastereomer 2)",
    "Cat": "FALSE"
  },
  {
    "Compound": "Cc1cn([C@H]2C=C[C@@H](COP3(=O)OCc4cccc(-c5cccc6c5OC(C)(C)OC6)c4O3)O2)c(=O)[nH]c1=O (stereo in doubt; 33(Rp))",
    "Cat": "TRUE"
  }
]

IN: CC50 strictly < 60 µM for this compound? Cc1cn([C@H]2C=C[C@@H](COP3(=O)OCc4cccc(-c5cccc(CO)c5O)c4O3)O2)c(=O)[nH]c1=O (stereo in doubt; 29(Rp))
OUT: FALSE

* * *

Measured EC50, listed per entry.
System: Human immunodeficiency virus 1
Protocol notes: Antiviral activity against HIV1 in CEM/0 cells
Assay type: functional, organism-based
Assay setup: cem/0
# output: bare number, implied unit nM

# example entries with known answers
[
  {
    "Compound": "Cc1cn([C@H]2C=C[C@@H](COP3(=O)OCc4cccc(-c5cccc(CO)c5O)c4O3)O2)c(=O)[nH]c1=O (stereo in doubt; 29(Rp))",
    "EC50, nM": 270
  },
  {
    "Compound": "Cc1cn([C@H]2C=C[C@@H](COP3(=O)OCc4cccc(-c5cccc6c5OC(C)(C)OC6)c4O3)O2)c(=O)[nH]c1=O (stereo in doubt; 33(Rp))",
    "EC50, nM": 360
  },
  {
    "Compound": "Cc1cn([C@H]2C=C[C@@H](COP3(=O)OCc4cccc(-c5cccc6c5OP(=O)(OC[C@@H]5C=C[C@H](n7cc(C)c(=O)[nH]c7=O)O5)OC6)c4O3)O2)c(=O)[nH]c1=O (single isomer, unassigned; diastereomer 1)",
    "EC50, nM": 250
  },
  {
    "Compound": "Cc1cn([C@H]2C=C[C@@H](COP3(=O)OCc4cccc(-c5cccc6c5OC(C)(C)OC6)c4O3)O2)c(=O)[nH]c1=O (stereo in doubt; 33)",
    "EC50, nM": 350
  }
]

Next compound, EC50 to be filled in.
IN: Returns the measured EC50 for the input compound. Input: Cc1cn([C@H]2C=C[C@@H](COP3(=O)OCc4cccc(-c5cccc6c5OP(=O)(OC[C@@H]5C=C[C@H](n7cc(C)c(=O)[nH]c7=O)O5)OC6)c4O3)O2)c(=O)[nH]c1=O (single isomer, unassigned; diastereomer 2)
OUT: 210

* * *

Target of assay: Cholinesterase (Homo sapiens)
Protocol notes: Inhibition of human serum BChE
Measurement name: IC50 (µM)
# output: bare number, implied unit µM

[
  {
    "Compound": "Cc1cn([C@H]2C=C[C@@H](COP3(=O)OCc4cccc(-c5cccc6c5OC(C)(C)OC6)c4O3)O2)c(=O)[nH]c1=O (stereo in doubt; 33(Sp))",
    "Target of assay": "Cholinesterase (Homo sapiens)",
    "Units symbol": "µM",
    "Recorded number": 3.6
  }
]

Next compound, IC50 to be filled in.
IN: Enter reported IC50 observed with Cholinesterase (Homo sapiens) for Cc1cn([C@H]2C=C[C@@H](COP3(=O)OCc4cccc(-c5cccc6c5OP(=O)(OC[C@@H]5C=C[C@H](n7cc(C)c(=O)[nH]c7=O)O5)OC6)c4O3)O2)c(=O)[nH]c1=O (single isomer, unassigned; diastereomer 1)
OUT: 14

* * *

Tested on: Human immunodeficiency virus 2
Protocol notes: Antiviral activity against H1V2 in TK-deficient CEM cells
Format: functional, organism-based, CCRF-CEM
Assay setup: Human immunodeficiency virus 2, CCRF-CEM
Measured EC50, listed per entry.
# output: bare number, implied unit nM

# example entries with known answers
[
  {
    "Compound": "Cc1cn([C@H]2C=C[C@@H](COP3(=O)OCc4cccc(-c5ccccc5)c4O3)O2)c(=O)[nH]c1=O (some centres undefined)",
    "Measurement name": "EC50",
    "Recorded number": 280
  },
  {
    "Compound": "Cc1cn([C@H]2C=C[C@@H](COP3(=O)OCc4cccc(-c5cccc6c5OP(=O)(OC[C@@H]5C=C[C@H](n7cc(C)c(=O)[nH]c7=O)O5)OC6)c4O3)O2)c(=O)[nH]c1=O (stereo in doubt; 6)",
    "Measurement name": "EC50",
    "Recorded number": 2330
  },
  {
    "Compound": "Cc1cc2c(c(-c3cc(C)cc4c3OP(=O)(OC[C@@H]3C=C[C@H](n5cc(C)c(=O)[nH]c5=O)O3)OC4)c1)OP(=O)(OC[C@@H]1C=C[C@H](n3cc(C)c(=O)[nH]c3=O)O1)OC2 (some centres undefined)",
    "Measurement name": "EC50",
    "Recorded number": 1600
  }
]

Next compound, EC50 to be filled in.
IN: Returns the measured EC50 for the input compound. Input: Cc1cn([C@H]2C=C[C@@H](CO)O2)c(=O)[nH]c1=O [STAVUDINE]
OUT: 51000

* * *

Measured t1/2, listed per entry.
Protocol notes: Hydrolytic stability in 25 mM phosphate buffer at pH 7.3, 37 degC
Type: physicochemical
Assay setup: buffer
# output: bare number, implied unit h

[
  {
    "Molecule": "Cc1cn([C@H]2C=C[C@@H](COP3(=O)OCc4cccc(-c5cccc6c5OC(C)(C)OC6)c4O3)O2)c(=O)[nH]c1=O (stereo in doubt; 33(Rp))",
    "t1/2 [h]": 21
  },
  {
    "Molecule": "Cc1cn([C@H]2C=C[C@@H](COP3(=O)OCc4cccc(-c5cccc6c5OC(C)(C)OC6)c4O3)O2)c(=O)[nH]c1=O (stereo in doubt; 33)",
    "t1/2 [h]": 16
  },
  {
    "Molecule": "Cc1cn([C@H]2C=C[C@@H](COP3(=O)OCc4cccc(-c5cccc(CO)c5O)c4O3)O2)c(=O)[nH]c1=O (stereo in doubt; 29(Rp))",
    "t1/2 [h]": 1.4
  }
]

Next molecule, t1/2 to be filled in.
IN: Returns the measured t1/2 for the input molecule. Input: Cc1cn([C@H]2C=C[C@@H](COP3(=O)OCc4cccc(-c5cccc(CO)c5O)c4O3)O2)c(=O)[nH]c1=O (stereo in doubt; 29)
OUT: 1.3

* * *

Target of assay: Cholinesterase (Homo sapiens)
Protocol notes: Inhibition of human serum BChE
Measurement name: IC50
Report as: number unit

[
  {
    "Compound": "Cc1cn([C@H]2C=C[C@@H](COP3(=O)OCc4cccc(-c5cccc6c5OP(=O)(OC[C@@H]5C=C[C@H](n7cc(C)c(=O)[nH]c7=O)O5)OC6)c4O3)O2)c(=O)[nH]c1=O (stereo in doubt; 6)",
    "IC50": "40000 nM"
  },
  {
    "Compound": "Cc1cn([C@H]2C=C[C@@H](COP3(=O)OCc4cccc(-c5ccccc5)c4O3)O2)c(=O)[nH]c1=O (stereo partly drawn)",
    "IC50": "350 nM"
  }
]

Next compound, IC50 to be filled in.
IN: Returns the measured IC50 for the input compound. Input: Cc1cn([C@H]2C=C[C@@H](COP3(=O)OCc4cccc(-c5cccc(CO)c5O)c4O3)O2)c(=O)[nH]c1=O (stereo in doubt; 29(Sp))
OUT: 790 nM

* * *

Target of assay: Cholinesterase (Homo sapiens, UniProt P06276)
Sequence (P06276 whole entry): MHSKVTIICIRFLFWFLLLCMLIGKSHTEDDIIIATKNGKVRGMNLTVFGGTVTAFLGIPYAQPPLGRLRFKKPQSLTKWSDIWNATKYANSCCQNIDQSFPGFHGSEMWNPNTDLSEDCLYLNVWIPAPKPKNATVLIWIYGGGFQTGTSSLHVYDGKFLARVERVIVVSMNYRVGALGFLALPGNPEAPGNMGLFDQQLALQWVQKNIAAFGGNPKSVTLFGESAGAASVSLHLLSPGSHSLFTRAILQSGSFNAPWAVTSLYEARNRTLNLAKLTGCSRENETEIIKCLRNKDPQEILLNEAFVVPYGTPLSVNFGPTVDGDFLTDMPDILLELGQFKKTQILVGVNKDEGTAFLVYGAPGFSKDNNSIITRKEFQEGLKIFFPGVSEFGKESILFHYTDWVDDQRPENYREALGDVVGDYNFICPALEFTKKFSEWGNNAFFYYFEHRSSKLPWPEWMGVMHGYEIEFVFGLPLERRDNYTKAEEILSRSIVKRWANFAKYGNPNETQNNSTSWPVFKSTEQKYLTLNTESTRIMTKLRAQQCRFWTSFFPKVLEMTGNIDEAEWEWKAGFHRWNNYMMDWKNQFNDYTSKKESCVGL
Protocol notes: Inhibition of human serum BChE
Measurement name: IC50 (µM)
# output: bare number, implied unit µM

[
  {
    "Compound": "Cc1cn([C@H]2C=C[C@@H](COP3(=O)OCc4cccc(-c5cccc6c5OC(C)(C)OC6)c4O3)O2)c(=O)[nH]c1=O (stereo in doubt; 33)",
    "Target of assay": "Cholinesterase (Homo sapiens, UniProt P06276)",
    "Recorded number": 4.7
  },
  {
    "Compound": "Cc1cn([C@H]2C=C[C@@H](COP3(=O)OCc4cccc(-c5cccc(CO)c5O)c4O3)O2)c(=O)[nH]c1=O (stereo in doubt; 29)",
    "Target of assay": "Cholinesterase (Homo sapiens, UniProt P06276)",
    "Recorded number": 2.3
  }
]

Next compound, IC50 to be filled in.
IN: Returns the measured IC50 for the input compound. Input: Cc1cn([C@H]2C=C[C@@H](COP(=O)(O)OCc3cccc(-c4cccc5c4OP(=O)(OC[C@@H]4C=C[C@H](n6cc(C)c(=O)[nH]c6=O)O4)OC5)c3O)O2)c(=O)[nH]c1=O (some centres not stated)
OUT: 2.3
